EXPERIMENTAL TARGET: human TLR7 (Homo sapiens)
Construct: host or cells: HEK293 (HEK-Blue hTLR7)
Sequence (Q9NYK1 27-1049): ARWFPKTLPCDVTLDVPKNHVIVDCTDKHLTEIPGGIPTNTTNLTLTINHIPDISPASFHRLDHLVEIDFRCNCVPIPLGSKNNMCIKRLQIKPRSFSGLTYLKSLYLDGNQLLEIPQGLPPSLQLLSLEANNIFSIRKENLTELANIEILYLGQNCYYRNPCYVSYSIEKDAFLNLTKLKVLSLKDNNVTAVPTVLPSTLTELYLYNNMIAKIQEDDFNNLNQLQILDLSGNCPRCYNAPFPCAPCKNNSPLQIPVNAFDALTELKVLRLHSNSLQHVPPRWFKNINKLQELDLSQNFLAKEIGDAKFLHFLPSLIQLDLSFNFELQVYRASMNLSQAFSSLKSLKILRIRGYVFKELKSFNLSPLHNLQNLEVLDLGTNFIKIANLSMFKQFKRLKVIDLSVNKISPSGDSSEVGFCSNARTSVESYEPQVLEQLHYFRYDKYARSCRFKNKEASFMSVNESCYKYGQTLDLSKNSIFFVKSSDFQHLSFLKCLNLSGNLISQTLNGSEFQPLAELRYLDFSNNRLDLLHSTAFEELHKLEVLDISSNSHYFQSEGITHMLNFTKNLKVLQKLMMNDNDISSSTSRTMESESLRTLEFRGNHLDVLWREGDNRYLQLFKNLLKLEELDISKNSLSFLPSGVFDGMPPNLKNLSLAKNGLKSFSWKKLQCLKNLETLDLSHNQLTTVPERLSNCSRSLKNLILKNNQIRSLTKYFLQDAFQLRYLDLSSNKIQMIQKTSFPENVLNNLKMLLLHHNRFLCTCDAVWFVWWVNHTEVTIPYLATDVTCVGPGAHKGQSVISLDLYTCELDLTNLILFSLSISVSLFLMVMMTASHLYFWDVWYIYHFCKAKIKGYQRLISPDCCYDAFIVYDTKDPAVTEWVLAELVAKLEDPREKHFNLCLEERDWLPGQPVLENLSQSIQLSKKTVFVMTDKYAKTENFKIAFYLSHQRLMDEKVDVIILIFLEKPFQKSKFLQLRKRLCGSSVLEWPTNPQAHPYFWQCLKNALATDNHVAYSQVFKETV
ASSAY EXPLANATION: HEK-Blue hTLR7 reporter cell assay (SEAP, NF-kB/AP-1) for stimulation of human TLR7
Assay type: cell-based
ASSAY CONTEXT: 24 h; at 20000 nM; HEK-Blue hTLR7 cells
PARAMETER MEASURED: activation at 20 µM (%)

MOLECULE: CCCNc1nc2c(N)nnc(OC(C)C)c2n1Cc1ccc(CN)cc1
activation at 20 µM [%]: 16.7
//
MOLECULE: CCCCc1nc2c(N)nnc(-c3cnn(C)c3)c2n1Cc1ccc(OC)cc1
activation at 20 µM [%]: 13

[I] CCCCc1nc2c(N)nnc(-c3cc[nH]c3)c2n1C[C@H]1CC[C@H](N)CC1
[II] CCCCc1nc2c(N)nnc(OC(C)C)c2n1Cc1ccc(CNCCOCCOCCOCCOCCOCCOCCOCCOCCOCCOCCOCCOC)cc1
Task: Lab note: check whether I or II shows the higher recorded activation at 20 µM. Your answer should be the label attached to the chosen record.
Result: I
(I: 26.8%, II: 13.5%)

* * *

EXPERIMENTAL TARGET: human TLR7 (Homo sapiens, UniProt Q9NYK1)
Construct: host or cells: HEK293 (HEK-Blue hTLR7)
ASSAY EXPLANATION: HEK-Blue hTLR7 reporter cell assay (SEAP, NF-kB/AP-1) for stimulation of human TLR7
Format: cell-based
ASSAY CONTEXT: HEK-Blue hTLR7 cells, 24 h incubation, SEAP readout; read-out: TLR7_EC50
PARAMETER MEASURED: EC50 (nM)

Answered examples (4):
COMPOUND: CCCCc1nc2c(N)nnc(OC(C)C)c2n1Cc1ccc(CNC2CC2)cc1 [Compound 36]
NUMERIC READOUT: 19
--
COMPOUND: CCCCc1nc2c(N)nnc(NC(C)C)c2n1Cc1ccc(OC)cc1 [Compound 2]
NUMERIC READOUT: 53
--
COMPOUND: CCCCc1nc2c(N)nnc(NC(C)C)c2n1C [Compound 88]
NUMERIC READOUT: 2980
--
COMPOUND: CCC[S+]([O-])c1nc2c(N)nnc(OC(C)C)c2n1Cc1ccc(CN)cc1 (stereo not drawn) [Compound 162]
NUMERIC READOUT: 6700

[A] C=CCOc1nnc(N)c2nc(CCCC)n(Cc3ccc(OC)cc3)c12 [Compound 6]
[B] CCCCc1nc2c(N)nnc(/C=C/C(C)C)c2n1Cc1ccc(OC)cc1 [Compound 12]
[C] CCCCc1nc2c(N)nnc(OC(C)C)c2n1CCC1CCNCC1 [Compound 78]
Task: Parameters: sort_field (EC50), sort_dir (desc). List the labels according to the requested ordering.
Result: C, B, A
(C: 7740 nM, B: 710 nM, A: 295 nM)

[P] CCCCc1nc2c(N)nnc(N3CCCC3)c2n1C[C@H]1CC[C@H](CN)CC1 [Compound 142]
[Q] CCCCc1nc2c(N)nnc(O[C@H]3CCOC3)c2n1Cc1ccc(OC)cc1 [Compound 54]
Task: Of P and Q , whose reported EC50 is numerically smaller? Your answer should be the label attached to the chosen record.
Result: Q
(Q: 610 nM, P: 2640 nM)

* * *

EXPERIMENTAL TARGET: human TLR8 (Homo sapiens)
Construct: host or cells: HEK293 (HEK-Blue hTLR8)
Sequence (Q9NR97 27-1041): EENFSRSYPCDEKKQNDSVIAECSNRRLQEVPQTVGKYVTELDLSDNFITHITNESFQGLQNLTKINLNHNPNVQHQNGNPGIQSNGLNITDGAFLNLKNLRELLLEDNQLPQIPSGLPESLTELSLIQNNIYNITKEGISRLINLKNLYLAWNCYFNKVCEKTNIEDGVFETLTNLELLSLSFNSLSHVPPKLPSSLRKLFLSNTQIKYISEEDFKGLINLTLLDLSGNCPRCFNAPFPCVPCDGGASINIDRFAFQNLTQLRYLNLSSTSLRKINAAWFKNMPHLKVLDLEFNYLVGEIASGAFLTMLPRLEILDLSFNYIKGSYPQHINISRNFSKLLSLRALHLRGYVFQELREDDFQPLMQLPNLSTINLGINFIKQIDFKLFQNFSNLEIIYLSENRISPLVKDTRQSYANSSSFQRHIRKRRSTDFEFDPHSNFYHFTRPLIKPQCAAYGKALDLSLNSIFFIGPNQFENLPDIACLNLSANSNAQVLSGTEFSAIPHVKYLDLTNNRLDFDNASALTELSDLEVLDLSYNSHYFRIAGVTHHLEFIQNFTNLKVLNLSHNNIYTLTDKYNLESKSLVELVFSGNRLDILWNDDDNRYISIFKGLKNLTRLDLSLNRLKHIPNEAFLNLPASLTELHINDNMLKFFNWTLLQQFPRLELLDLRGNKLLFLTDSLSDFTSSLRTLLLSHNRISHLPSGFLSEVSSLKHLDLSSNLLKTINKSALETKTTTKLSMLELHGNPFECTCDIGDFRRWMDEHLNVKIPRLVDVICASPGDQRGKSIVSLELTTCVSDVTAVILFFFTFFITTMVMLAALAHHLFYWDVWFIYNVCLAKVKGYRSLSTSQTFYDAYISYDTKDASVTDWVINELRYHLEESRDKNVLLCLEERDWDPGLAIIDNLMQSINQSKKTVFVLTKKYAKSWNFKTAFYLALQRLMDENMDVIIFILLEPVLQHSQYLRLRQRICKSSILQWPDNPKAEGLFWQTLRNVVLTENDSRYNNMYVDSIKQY
ASSAY EXPLANATION: HEK-Blue hTLR8 reporter cell assay (SEAP, NF-kB/AP-1) for stimulation of human TLR8
Assay type: cell-based
ASSAY CONTEXT: HEK-Blue hTLR8 cells, 24 h incubation, SEAP readout; read-out: TLR8_EC50
PARAMETER MEASURED: EC50

Answered examples (5):
MOLECULE: CCCCc1nc2c(N)nnc(N3CCCC3)c2n1Cc1ccc(OC)cc1
EC50: > 20 µM
--
MOLECULE: C=CCOc1nnc(N)c2nc(CCCC)n(Cc3ccc(OC)cc3)c12
EC50: > 20 µM
--
MOLECULE: CCCCc1nc2c(N)nnc(OC(C)C)c2n1Cc1cccc(CNC2CS(=O)(=O)C2)c1
EC50: 6.26 µM
--
MOLECULE: CCCCc1nc2c(N)nnc(NCc3ccc(CN)cc3)c2n1C
EC50: > 20 µM
--
MOLECULE: CCCCc1nc2c(N)nnc(OC(C)C)c2n1Cc1ccc(CN(C(C)=O)C2CS(=O)(=O)C2)cc1
EC50: 14.7 µM

Task: I am curious: what EC50 value has been reported for CCCCc1nc2c(N)nnc(OCCC)c2n1Cc1ccc(OC)cc1 ?
Result: > 20 µM

Task: I am curious: what EC50 value has been reported for CCCCc1nc2c(N)nnc(OC(C)C)c2n1Cc1ccc(CNC2CS(=O)(=O)C2)cc1 ?
Result: > 20 µM
